Where do these numbers come from? They come from patent US8003658B2.

Target: EGFR (EGFR type 1 kinase) (Homo sapiens, UniProt P00533)
Sequence (P00533 25-1210, species assumed): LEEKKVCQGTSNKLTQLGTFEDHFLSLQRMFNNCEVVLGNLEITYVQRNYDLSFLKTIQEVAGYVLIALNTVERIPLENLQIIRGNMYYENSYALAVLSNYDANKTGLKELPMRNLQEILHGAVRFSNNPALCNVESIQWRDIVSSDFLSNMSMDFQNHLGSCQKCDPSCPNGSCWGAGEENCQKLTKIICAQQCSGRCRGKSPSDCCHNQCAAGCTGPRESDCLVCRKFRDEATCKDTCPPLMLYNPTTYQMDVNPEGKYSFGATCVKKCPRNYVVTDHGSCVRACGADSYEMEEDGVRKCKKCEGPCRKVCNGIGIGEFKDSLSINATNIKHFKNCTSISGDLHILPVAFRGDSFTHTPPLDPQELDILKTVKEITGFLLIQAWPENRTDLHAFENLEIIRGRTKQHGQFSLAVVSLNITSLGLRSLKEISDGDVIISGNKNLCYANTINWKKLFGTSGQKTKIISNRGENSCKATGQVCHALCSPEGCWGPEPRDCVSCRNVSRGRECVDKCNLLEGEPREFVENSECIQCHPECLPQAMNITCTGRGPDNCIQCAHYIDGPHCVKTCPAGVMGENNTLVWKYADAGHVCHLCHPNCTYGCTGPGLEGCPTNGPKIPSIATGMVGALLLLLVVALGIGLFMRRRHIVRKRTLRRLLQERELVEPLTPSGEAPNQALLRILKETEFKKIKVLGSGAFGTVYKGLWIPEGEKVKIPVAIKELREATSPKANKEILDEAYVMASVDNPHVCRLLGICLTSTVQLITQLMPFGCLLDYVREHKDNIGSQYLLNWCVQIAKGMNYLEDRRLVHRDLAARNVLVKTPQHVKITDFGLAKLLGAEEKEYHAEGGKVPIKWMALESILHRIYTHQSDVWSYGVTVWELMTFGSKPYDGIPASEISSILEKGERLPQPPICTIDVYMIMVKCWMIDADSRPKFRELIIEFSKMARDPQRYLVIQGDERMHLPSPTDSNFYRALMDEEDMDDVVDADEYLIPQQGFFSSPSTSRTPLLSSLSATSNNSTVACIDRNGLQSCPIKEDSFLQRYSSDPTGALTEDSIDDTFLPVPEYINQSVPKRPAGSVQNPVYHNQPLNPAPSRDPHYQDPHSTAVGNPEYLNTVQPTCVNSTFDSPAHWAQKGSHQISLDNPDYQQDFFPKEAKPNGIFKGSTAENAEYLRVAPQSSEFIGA
Experiment: Inhibition of EGFR enzyme (fluorescence polarization kinase assay)
test.readout: pIC50
pIC50 field: float, defined as -log10 of concentration (mol/L).

Study these solved cases before continuing.
C=CC(=O)N1CCC[C@H]1C(=O)Nc1ccc2ncnc(Nc3ccc(OCc4cccc(C)n4)c(Cl)c3)c2c1	8.70
C=CC(=O)N[C@H](C)C(=O)Nc1cc2c(Nc3ccc(OCc4ccccn4)c(Cl)c3)ncnc2cc1OCCOC	8.70
C=CC(=O)N[C@@H](C)C(=O)Nc1cc2c(Nc3ccc(OCc4ccccn4)c(Cl)c3)ncnc2cc1OC	8.70
C=CC(=O)NCC(=O)Nc1cc2c(Nc3ccc(OCc4ccccn4)c(Cl)c3)ncnc2cc1OCCOC	8.70
C=CC(=O)N[C@@H](CC)C(=O)Nc1cc2c(Nc3ccc(OCc4ccccn4)c(Cl)c3)ncnc2cc1OC	8.70

The molecule listed as C=CC(=O)N[C@H](C)C(=O)Nc1cc2c(Nc3ccc(OCc4ccccn4)c(Cl)c3)ncnc2cc1OC has a reported pIC50 of 9.00

The molecule listed as C=CC(=O)NCCC(=O)Nc1ccc2ncnc(Nc3ccc(OCc4cccc(F)c4)c(Cl)c3)c2c1 has a reported pIC50 of 8.52

The molecule listed as C=CC(=O)N(C)CCC(=O)Nc1ccc2ncnc(Nc3ccc(OCc4ccccn4)c(Cl)c3)c2c1 has a reported pIC50 of 9.00

The molecule listed as C=CC(=O)NCCC(=O)Nc1cc2c(Nc3ccc(OCc4ccccn4)c(C)c3)ncnc2cc1F has a reported pIC50 of 8.40

The molecule listed as COCC(=O)NCCC(=O)Nc1ccc2ncnc(Nc3ccc(OCc4cccc(F)c4)c(Cl)c3)c2c1 has a reported pIC50 of 7.52

The molecule listed as C=CC(=O)NCCC(=O)N(C)c1ccc2ncnc(Nc3ccc(OCc4cccc(F)c4)c(Cl)c3)c2c1 has a reported pIC50 of 8.30

The molecule listed as C=CC(=O)NCC(=O)Nc1cc2c(Nc3ccc(OCc4cccc(F)c4)c(Cl)c3)ncnc2cc1OCCOC has a reported pIC50 of 8.70

The molecule listed as C=CC(=O)N1CCC[C@H]1C(=O)Nc1cc2c(Nc3ccc(OCc4ccccn4)c(Cl)c3)ncnc2cc1OC has a reported pIC50 of 8.52

----------
Test system: A431 (ATCC: CRL-1555)
Assay: Test of cancer cell growth inhibition (SRB), A431
Details: Homo sapiens, A-431, 72 h, read-out: IC50 A431
The following compounds are listed with their measured pIC50 values.
pIC50 field: float, defined as -log10 of concentration (mol/L).

Study these solved cases before continuing.
C=CC(=O)N(C)[C@@H](C)C(=O)Nc1cc2c(Nc3ccc(OCc4ccccn4)c(Cl)c3)ncnc2cc1OC	7.25
O=C(CCNC(=O)NCc1ccco1)Nc1ccc2ncnc(Nc3ccc(OCc4cccc(F)c4)c(Cl)c3)c2c1	6.57
C=CC(=O)N[C@H](C(=O)Nc1ccc2ncnc(Nc3ccc(OCc4ccccn4)c(Cl)c3)c2c1)C(C)C	7.31

Consider the additional compound presented here.
The compound listed as C=CC(=O)N1CCC[C@H]1C(=O)Nc1cc2c(Nc3ccc(OCc4ccccn4)c(Cl)c3)ncnc2cc1Cl has a reported pIC50 of 6.29

----------
System: SK-Br3 (ATCC: HTB-30)
Assay: Test of cancer cell growth inhibition (SRB), SK-Br3
Conditions: read-out: IC50 SK-Br-3; Erb-B2 overexpressed SK-Br3, 72 hours, SRB
The following compounds are listed with their measured pIC50 values.
pIC50 field: float, defined as -log10 of concentration (mol/L).

COCC(=O)N[C@@H](CCSC)C(=O)Nc1ccc2ncnc(Nc3ccc(OCc4cccc(F)c4)c(Cl)c3)c2c1	6.58
CSCC[C@H](NC(=O)CS(C)(=O)=O)C(=O)Nc1ccc2ncnc(Nc3ccc(OCc4cccc(F)c4)c(Cl)c3)c2c1	6.72

The compound listed as Cc1oncc1C(=O)NCCC(=O)Nc1ccc2ncnc(Nc3ccc(OCc4cccc(F)c4)c(Cl)c3)c2c1 has a reported pIC50 of 5.77

----------
System: A431 (ATCC: CRL-1555)
Test: Test of cancer cell growth inhibition (SRB), A431
Conditions: Homo sapiens, A-431, 72 h, read-out: IC50 A431
test.readout: pIC50
pIC50 field: float, defined as -log10 of concentration (mol/L).

Study these solved cases before continuing.
C=CC(=O)N1C[C@H](SCC)C[C@H]1C(=O)Nc1ccc2ncnc(Nc3ccc(OCc4ccccn4)c(Cl)c3)c2c1	7.44
C=CC(=O)N(C)CCC(=O)Nc1ccc2ncnc(Nc3ccc(OCc4cccc(F)c4)c(Cl)c3)c2c1	7.72
COCC(=O)NCCC(=O)Nc1ccc2ncnc(Nc3ccc(OCc4cccc(F)c4)c(Cl)c3)c2c1	6.02

Consider the additional compound presented here.
Entry C=CC(=O)N1CCC[C@H]1C(=O)Nc1cc2c(Nc3ccc(OCc4ccccn4)c(Cl)c3)ncnc2cc1SCC , tested on A431 (ATCC: CRL-1555), has a reported pIC50 of 6.51

----------
Tested on: A431 (ATCC: CRL-1555)
Assay: Test of cancer cell growth inhibition (SRB), A431
Details: Homo sapiens, A-431, 72 h, read-out: IC50 A431
The following compounds are listed with their measured IC50 values.
Include the unit after the number when you answer.

Study these solved cases before continuing.
C#Cc1cccc(Nc2ncnc3cc(OCCOC)c(OCCOC)cc23)c1 [Tarceva, reference compound]	59 nM
COCC(=O)NCC(OC(C)=O)C(=O)Nc1ccc2ncnc(Nc3ccc(OCc4cccc(F)c4)c(Cl)c3)c2c1 (stereo not drawn)	482 nM

Consider the additional compound presented here.
The compound listed as CC(CNC(=O)OC(C)(C)C)C(=O)Nc1ccc2ncnc(Nc3ccc(OCc4cccc(F)c4)c(Cl)c3)c2c1 (stereo not drawn) has a reported IC50 of 936 nM

----------
The following compounds are listed with their measured IC50 values.
Tested on: A431 (ATCC: CRL-1555)
Assay: Test of cancer cell growth inhibition (SRB), A431
Conditions: Homo sapiens, A-431, 72 h, read-out: IC50 A431
The reply should contain only the number, in nM.

The compound listed as C=CC(=O)N1CCC[C@H](C(=O)Nc2cc3c(Nc4ccc(OCc5ccccn5)c(Cl)c4)ncnc3cc2OC)C1 [Example 201] has a reported IC50 of 148

The compound listed as C=CC(=O)N[C@@H](C)CC(=O)Nc1cc2c(Nc3ccc(OCc4ccccn4)c(Cl)c3)ncnc2cc1OC [Example 212] has a reported IC50 of 98

The compound listed as C=CC(=O)N1CCC[C@H]1C(=O)Nc1cc2c(Nc3ccc(OCc4ccccn4)c(C)c3)ncnc2cc1OC [Example 168] has a reported IC50 of 68

----------
Tested on: A431 (ATCC: CRL-1555)
Experiment: Test of cancer cell growth inhibition (SRB), A431
Conditions: read-out: IC50 A431; EGFR overexpressed A431, 72 hours, SRB
The following compounds are listed with their measured pIC50 values.
pIC50 field: float, defined as -log10 of concentration (mol/L).

Study these solved cases before continuing.
C=CC(=O)N1CCC(C(=O)Nc2ccc3ncnc(Nc4ccc(OCc5ccccn5)c(Cl)c4)c3c2)CC1 [Example 156]	6.29
CC#CC(=O)NCCC(=O)Nc1ccc2ncnc(Nc3ccc(OCc4cccc(F)c4)c(Cl)c3)c2c1 [Example 27]	7.07
CC(C)(C)OC(=O)NCCC(=O)Nc1ccc2ncnc(Nc3ccc4c(cnn4Cc4ccccc4)c3)c2c1 [Example 77]	6.68

The compound listed as CSCC(=O)NCCCC(=O)Nc1ccc2ncnc(Nc3ccc(OCc4cccc(F)c4)c(Cl)c3)c2c1 [Example 137] has a reported pIC50 of 7.00

The compound listed as CC=CC(=O)NCCC(=O)Nc1ccc2ncnc(Nc3ccc(OCc4cccc(F)c4)c(Cl)c3)c2c1 [Example 28] has a reported pIC50 of 6.71

The compound listed as O=C(CCl)NCCC(=O)Nc1ccc2ncnc(Nc3ccc(OCc4cccc(F)c4)c(Cl)c3)c2c1 [Example 61] has a reported pIC50 of 6.77

The compound listed as COc1cc2ncnc(Nc3ccc(OCc4ccccn4)c(Cl)c3)c2cc1NC(=O)[C@@H]1CCCN1C(=O)C=CCN(C)C [Example 175] has a reported pIC50 of 7.32

----------
The following molecules are listed with their measured log10 of IC50 values.
Tested on: A431 (ATCC: CRL-1555)
Test: Test of cancer cell growth inhibition (SRB), A431
Settings: Homo sapiens, A-431, 72 h, read-out: IC50 A431
Each number you see is log10 of IC50, and the unit inside the log is nM.

Study these solved cases before continuing.
C=CC(=O)N1CCC1C(=O)Nc1cc2c(Nc3ccc(OCc4ccccn4)c(Cl)c3)ncnc2cc1OCC (stereo not drawn) [Example 199]	2.16
C#Cc1cccc(Nc2ncnc3ccc(NC(=O)[C@@H]4CCCN4C(=O)C=C)cc23)c1 [Example 158]	2.77
C=CC(=O)NCC(=O)Nc1cc2c(Nc3ccc(OCc4ccccn4)c(Cl)c3)ncnc2cc1OCCOC [Example 218]	1.20
CC(C)(C)OC(=O)NCCC(=O)Nc1ccc2ncnc(Nc3ccc(OCc4cccc(F)c4)c(Cl)c3)c2c1 [Example 19]	2.53
C=CC(=O)N1CCC(C(=O)Nc2cc3c(Nc4ccc(OCc5ccccn5)c(Cl)c4)ncnc3cc2OC)C1 (stereo not drawn) [Example 198]	1.67

The molecule listed as CC(C)(C)OC(=O)NCCCCC(=O)Nc1ccc2ncnc(Nc3ccc(OCc4cccc(F)c4)c(Cl)c3)c2c1 [Example 114] has a reported log10 of IC50 of 2.13

The molecule listed as C=CC(=O)N1CCC1C(=O)Nc1cc2c(Nc3ccc(OCc4ccccn4)c(Cl)c3)ncnc2cc1OC (stereo not drawn) [Example 182] has a reported log10 of IC50 of 2.11

The molecule listed as C=CC(=O)NCCC(=O)N(CC)c1ccc2ncnc(Nc3ccc(OCc4cccc(F)c4)c(Cl)c3)c2c1 [Example 140] has a reported log10 of IC50 of 2.01

The molecule listed as C=CC(=O)N1CCC[C@H]1C(=O)Nc1cc2c(Nc3ccc4c(cnn4Cc4cccc(F)c4)c3)ncnc2cc1OC [Example 188] has a reported log10 of IC50 of 1.38

The molecule listed as C=CC(=O)N1CCC[C@H]1C(=O)Nc1ccc2ncnc(Nc3ccc(Oc4ccc(C)nc4)c(C)c3)c2c1 [Example 157] has a reported log10 of IC50 of 3.75

The molecule listed as O=C(CCCNC(=O)c1ccccc1)Nc1ccc2ncnc(Nc3ccc(OCc4cccc(F)c4)c(Cl)c3)c2c1 [Example 90] has a reported log10 of IC50 of 2.63

The molecule listed as COC(=O)NCCC(=O)Nc1ccc2ncnc(Nc3ccc(OCc4cccc(F)c4)c(Cl)c3)c2c1 [Example 126] has a reported log10 of IC50 of 2.00
